tested on: M-21 melanoma cells; assay: Sulforhodamine B cytotoxicity, M-21; assay type: cell-based; conditions: Homo sapiens, M21
metric.name: IC50 (nM)
Answer format: numeric, nM implied, no suffix.

IN: Can you share its IC50? I mean this compound: O=C(OCCS(=O)(=O)c1ccccc1)N1c2ccc(OCCO)cc2C23OC24CCCC3C#C/C=C\C#CC14 (stereo not shown)
OUT: 1600

###

System: Ovcar-4 ovarian carcinoma cells
Assay: Sulforhodamine B cytotoxicity, Ovcar-4
Assay type: cell-based
Settings: Homo sapiens
Protocol: In addition to the screening already discussed, several of the before-described compounds and chimeras were screened against several or all of a panel of ten to twenty-five cancerous cell lines as target cells and seven "normal" cell preparations. This screening utilized a sulforhodamine B cytotoxidity assay as discussed below. IC50 values; i.e., the concentration of Compound required to kill one-half of the treated cells, were then calculated.
metric.name: IC50 (nM)
Answer format: numeric, nM implied, no suffix.

IN: Can you share its IC50? I mean this compound: O=C(OCCS(=O)(=O)c1ccccc1)N1c2ccc(OCCO)cc2C23OC24CCCC3C#C/C=C\C#CC14 (stereo not shown)
OUT: 780
